Tested on: P. falciparum female gametocytes
Test: P. falciparum Dual Gamete Formation Assay (PfDGFA), female readout (Pfs25-positive female gametes)
Type: cell-based, Plasmodium falciparum NF54
Details: 2µM, 24h preincubation with gametocytes prior to induction of gametogenesis; replicate R4
parameter.measured: % inhibition female (individual replicates) R4
Record the result as a number with its unit.

Record excerpt, results attached:
CCC(CC)n1c(C)cc2c3c(N)nc(N)nc3ccc21 [TCMDC-137283] ... 19.7%
CC(C)COc1ccc2ccccc2c1CNCCCCCCNCc1c(OCC(C)C)ccc2ccccc12.CS(=O)(=O)O [TCMDC-137972] ... 62.6%
CCOCn1c(-c2ccccc2)cc2c3c(N)nc(N)nc3ccc21 [TCMDC-137979] ... 83.9%

We next turn to a different molecule, shown below.
What does the record list as % inhibition female (individual replicates) R4 for Cc1cccc2nc(-c3ccc(-c4ccc(CN5CCN(C6CCN(C)CC6)CC5)cc4)s3)[nH]c12.O=C(O)C(F)(F)F [TCMDC-133866] ? 27.5%
